Biological target: HsADA (Homo sapiens, UniProt P00813)
Construct: Human adenosine deaminase from human erythrocytes; purchased Sigma-Aldrich Chemical Company; host or cells: human erythrocytes
Sequence (P00813 1-363): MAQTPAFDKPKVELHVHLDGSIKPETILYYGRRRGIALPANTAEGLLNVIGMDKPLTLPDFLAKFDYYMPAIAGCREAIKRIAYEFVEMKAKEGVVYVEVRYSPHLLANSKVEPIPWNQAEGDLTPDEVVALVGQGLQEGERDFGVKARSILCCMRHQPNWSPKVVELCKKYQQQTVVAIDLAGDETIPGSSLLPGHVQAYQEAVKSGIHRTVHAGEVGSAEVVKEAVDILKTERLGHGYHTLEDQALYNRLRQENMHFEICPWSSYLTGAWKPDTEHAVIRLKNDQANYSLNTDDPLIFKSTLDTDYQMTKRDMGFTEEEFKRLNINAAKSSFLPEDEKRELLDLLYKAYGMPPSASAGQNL
Test: Inhibition of human adenosine deaminase (adenosine to inosine, absorbance change)
Type: biochemical
Details: HsADA Ki (nM), initial dissociation constant; 100 μM adenosine, pH 7.0, 30° C.; >10,000 = no inhibition at 10 μM
Measurement Name: Ki

Input `OC[C@H]1O[C@@H](n2cnc3c2N=CNC[C@H]3O)[C@H](O)[C@@H]1O` . Output Ki: 13.9 nM

====

molecular target: BtADA (Bos taurus, UniProt P56658); construct: bovine adenosine deaminase from bovine spleen; purchased Sigma-Aldrich Chemical Company; host or cells: bovine spleen; test: Inhibition of bovine adenosine deaminase (adenosine to inosine, absorbance change); format: biochemical; settings: read-out: BtADA Ki
Measurement Name: Ki

Solved cases (2 shown):
O[C@@H]1CNC=Nc2c1ncn2[C@H]1C[C@H](O)[C@@H](CSc2ccccc2)O1: > 10 µM
CCCSC[C@H]1O[C@@H](n2cnc3c2N=CNC[C@H]3O)C[C@@H]1O: > 10 µM

The record that follows has no Ki shown yet.
Record summary for `CSC[C@H]1O[C@@H](n2cnc3c2N=CNC[C@H]3O)C[C@@H]1O` : reported Ki = > 10 µM

====

Target: HsADA (Homo sapiens)
Construct: Human adenosine deaminase from human erythrocytes; purchased Sigma-Aldrich Chemical Company; host or cells: human erythrocytes
Sequence (P00813 1-363): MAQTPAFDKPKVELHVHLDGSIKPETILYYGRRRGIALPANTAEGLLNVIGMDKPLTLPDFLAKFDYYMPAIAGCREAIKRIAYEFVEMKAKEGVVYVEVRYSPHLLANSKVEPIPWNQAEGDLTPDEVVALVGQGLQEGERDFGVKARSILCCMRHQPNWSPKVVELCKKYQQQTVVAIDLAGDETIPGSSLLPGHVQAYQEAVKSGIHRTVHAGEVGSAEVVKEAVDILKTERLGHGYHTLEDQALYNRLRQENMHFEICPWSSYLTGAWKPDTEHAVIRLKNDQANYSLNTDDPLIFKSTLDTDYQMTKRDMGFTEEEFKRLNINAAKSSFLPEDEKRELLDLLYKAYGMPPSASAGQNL
Experiment: Inhibition of human adenosine deaminase (adenosine to inosine, absorbance change)
Format: biochemical
Conditions: read-out: HsADA Ki
Measurement Name: Ki

CSC[C@H]1O[C@@H](n2cnc3c2N=CNC[C@H]3O)C[C@@H]1O: > 10 µM

Next, consider the following compound.
Noted Ki for `CCCSC[C@H]1O[C@@H](n2cnc3c2N=CNC[C@H]3O)C[C@@H]1O` , tested on HsADA (Homo sapiens): > 10 µM

====

target: UniProt Q8IJA9; assay: biochemical; assay type: biochemical; settings: PfADA Ki (nM), initial dissociation constant; 100 μM adenosine, pH 7.0, 30° C.
Measurement Name: Ki (nM)
Give bare numbers, in nM.

# value of Ki, UniProt Q8IJA9, item `OC[C@H]1O[C@@H](n2cnc3c2N=CNC[C@H]3O)[C@H](O)[C@@H]1O` = 0.68

====

target: PfADA (Plasmodium falciparum); assay: biochemical; assay type: biochemical; settings: slow onset equilibrium dissociation constant; read-out: PfADA Ki^a
Measurement Name: pKi
Give bare numbers, as −log10 of the molar value.

pKi reported for this molecule CSC[C@H]1O[C@@H](n2cnc3c2N=CNC[C@H]3O)C[C@@H]1O [5′-MeS-2′-deoxycoformycin (16)] : 9.14

====

Target: BtADA (Bos taurus)
Construct: bovine adenosine deaminase from bovine spleen; purchased Sigma-Aldrich Chemical Company; host or cells: bovine spleen
Sequence (P56658 1-363): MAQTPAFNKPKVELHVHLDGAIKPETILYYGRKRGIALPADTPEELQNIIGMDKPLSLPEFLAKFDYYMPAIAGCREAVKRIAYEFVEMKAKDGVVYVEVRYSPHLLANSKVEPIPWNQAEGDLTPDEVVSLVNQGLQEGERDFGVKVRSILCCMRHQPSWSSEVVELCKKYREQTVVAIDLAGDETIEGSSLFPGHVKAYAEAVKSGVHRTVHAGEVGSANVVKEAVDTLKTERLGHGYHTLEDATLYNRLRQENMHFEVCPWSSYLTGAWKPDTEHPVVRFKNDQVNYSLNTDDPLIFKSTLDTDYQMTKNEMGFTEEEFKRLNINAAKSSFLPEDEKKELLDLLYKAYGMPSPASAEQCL
Assay: Inhibition of bovine adenosine deaminase (adenosine to inosine, absorbance change)
Type: biochemical
Details: BtADA Ki^a (nM); slow onset equilibrium dissociation constant
Measurement Name: Ki (nM)
Answers are plain numbers, in nM.

Record `OC[C@H]1O[C@@H](n2cnc3c2N=CNC[C@H]3O)[C@H](O)[C@@H]1O` , field Ki: 0.06

====

Biological target: HsADA (Homo sapiens, UniProt P00813)
Construct: Human adenosine deaminase from human erythrocytes; purchased Sigma-Aldrich Chemical Company; host or cells: human erythrocytes
Sequence (P00813 1-363): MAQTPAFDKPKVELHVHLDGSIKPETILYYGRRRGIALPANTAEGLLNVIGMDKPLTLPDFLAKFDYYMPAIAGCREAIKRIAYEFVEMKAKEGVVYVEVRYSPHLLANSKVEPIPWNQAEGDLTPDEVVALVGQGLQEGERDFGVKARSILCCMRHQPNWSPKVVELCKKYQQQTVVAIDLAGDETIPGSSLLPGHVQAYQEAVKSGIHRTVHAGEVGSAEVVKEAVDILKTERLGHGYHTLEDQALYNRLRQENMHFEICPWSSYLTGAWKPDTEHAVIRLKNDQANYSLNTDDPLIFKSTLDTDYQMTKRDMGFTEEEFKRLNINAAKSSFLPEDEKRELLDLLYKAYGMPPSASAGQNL
Experiment: Inhibition of human adenosine deaminase (adenosine to inosine, absorbance change)
Type: biochemical
Conditions: HsADA Ki^a (nM); slow onset equilibrium dissociation constant
Measurement Name: Ki
Show the value, then the unit it is measured in.

Summary line: `OC[C@H]1O[C@@H](n2cnc3c2N=CNC[C@H]3O)[C@H](O)[C@@H]1O` , HsADA (Homo sapiens, UniProt P00813), reported Ki = 0.11 nM

====

Target: PfADA (Plasmodium falciparum, UniProt Q8IJA9)
Sequence (Q8IJA9 1-367): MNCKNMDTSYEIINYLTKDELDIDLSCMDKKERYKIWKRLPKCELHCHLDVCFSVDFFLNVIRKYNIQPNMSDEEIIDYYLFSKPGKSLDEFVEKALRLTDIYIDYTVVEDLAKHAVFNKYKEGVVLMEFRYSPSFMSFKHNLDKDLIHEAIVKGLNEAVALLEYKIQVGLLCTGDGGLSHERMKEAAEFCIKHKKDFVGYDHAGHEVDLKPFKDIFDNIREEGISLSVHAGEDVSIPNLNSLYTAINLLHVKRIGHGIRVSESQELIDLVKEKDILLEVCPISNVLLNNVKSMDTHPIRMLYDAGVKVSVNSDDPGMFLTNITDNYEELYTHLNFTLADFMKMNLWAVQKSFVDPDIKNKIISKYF
Experiment: biochemical
Assay type: biochemical
Details: PfADA Ki^a (nM); slow onset equilibrium dissociation constant
Measurement Name: Ki (nM)
Give bare numbers, in nM.

Consider `OC[C@H]1O[C@@H](n2cnc3c2N=CNC[C@H]3O)[C@H](O)[C@@H]1O` . Its measured Ki is 0.08
